# procedure_text: Cmax in rat at 1 mg/kg, iv administered as single dose by LC/MS/MS analysis
# Format: ADME, organism-based
# Parameters: dose 1 mg/kg, route intravenous
# condition_info: in vivo
experimental_endpoint: Cmax (ng/mL)
Give just the numeric value; ng/mL need not be written.

Item: CCOC(=O)N1CC/C(=C\C#Cc2cccc(C)n2)C1 | Cmax: 1620

* * *

# procedure_text: AUC in dog at 3 mg/kg, po administered as single dose by LC/MS/MS analysis
# Format: ADME, organism-based, Canis lupus familiaris
# condition_info: in vivo
experimental_endpoint: AUC (ng·h/mL)
Give just the numeric value; ng·h/mL need not be written.

Item: CCOC(=O)N1CC/C(=C\C#Cc2cccc(C)n2)C1 | AUC: 1090
